// data source = paper PMC12416549

# assayed_system: T1, TNFR1 (Homo sapiens, UniProt P19438)
# T1 chain: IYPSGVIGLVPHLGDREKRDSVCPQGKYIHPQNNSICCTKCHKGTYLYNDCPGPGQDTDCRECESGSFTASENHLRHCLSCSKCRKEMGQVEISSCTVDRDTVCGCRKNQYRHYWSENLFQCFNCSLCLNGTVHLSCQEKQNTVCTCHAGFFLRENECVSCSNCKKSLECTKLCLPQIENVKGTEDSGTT
# method_notes: yeast display SC50
outcome_measure: apparent Kd (screen) (nM)

The examples below pair each entry with its known result.
binder	apparent Kd (screen) (nM)
S1M (designed binder) MMEEEVEKAAKEYEKKKKEAIEKHLEKLKAKDKEAAERFLKELEEAAKEYAKDEAKTMSEEEAKRRAKKYKEKVLLSELSEEEQKEIKEAEEKLVRTILKYVEEAAK	2.25
S80A (designed binder) SMEEEVEKAAKEYEKKKKEAIEKHLEKLKAKDKEAAERFLKELEEAAKEYAKDEAKTMSEEEAKRRAKKYKEKVLLSELAEEEQKEIKEAEEKLVRTILKYVEEAAK	1.16

a: L99T (designed binder) SMEEEVEKAAKEYEKKKKEAIEKHLEKLKAKDKEAAERFLKELEEAAKEYAKDEAKTMSEEEAKRRAKKYKEKVLLSELSEEEQKEIKEAEEKLVRTITKYVEEAAK
b: E78V (designed binder) SMEEEVEKAAKEYEKKKKEAIEKHLEKLKAKDKEAAERFLKELEEAAKEYAKDEAKTMSEEEAKRRAKKYKEKVLLSVLSEEEQKEIKEAEEKLVRTILKYVEEAAK
Task item: Task for the reader: decide whether a or b has the larger apparent Kd (screen). Write down the label of the entry you select.
Reply: a
